Exercise: for every item that follows, state its recorded IC50.
- subject-of-test: malonyl-CoA decarboxylase prepared from rat heart (Rattus norvegicus)
- Sequence (Q920F5 39-492): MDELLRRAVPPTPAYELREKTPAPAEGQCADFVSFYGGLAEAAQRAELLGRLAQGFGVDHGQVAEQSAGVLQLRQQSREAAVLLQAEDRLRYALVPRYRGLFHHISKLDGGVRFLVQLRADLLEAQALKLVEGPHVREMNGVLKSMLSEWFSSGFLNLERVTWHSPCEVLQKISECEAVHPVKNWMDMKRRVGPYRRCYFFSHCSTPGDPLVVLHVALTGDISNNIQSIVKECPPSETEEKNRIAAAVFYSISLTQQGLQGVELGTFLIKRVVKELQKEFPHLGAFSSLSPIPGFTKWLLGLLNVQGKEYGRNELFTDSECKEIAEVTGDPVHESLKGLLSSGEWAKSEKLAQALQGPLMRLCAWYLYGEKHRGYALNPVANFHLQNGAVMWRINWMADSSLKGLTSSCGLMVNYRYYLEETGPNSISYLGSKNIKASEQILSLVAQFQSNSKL
Express it in µM; write the number only.

query: Which IC50 is reported for this compound? OC(C1CC(N2CCCC2)=NO1)(C(F)(F)F)C(F)(F)F (centres unmarked)
result: 3.71

query: Now give it for "CN(CC#CC(O)(C(F)(F)F)C(F)(F)F)C(=O)CCc1ccccc1" too.
result: 0.739
